Entry source: ChEMBL document CHEMBL3108772

# Protocol: Cmax in C57 mouse at 25 mg/kg, po
# Format: ADME, organism-based
# Set-up: dose 25 mg/kg, route oral
# Condition Context: in vivo

Entry Smiles	Cmax, ng/mL
COc1cc(C(N)=O)ccc1NC(=O)[C@@H]1N[C@@H](CC(C)(C)C)[C@@]2(C(=O)Nc3cc(Cl)ccc32)[C@H]1c1cccc(Cl)c1F	5800

###

# Protocol: Intrinsic clearance in human liver microsomes at […] preincubated for 5 mins followed by NADPH addition by LC-MS/MS analysis
# Assay type: ADME
# Condition Context: read-out: CLH

Entry Smiles	CLint scaled, mL/min/kg
COc1cc(C(N)=O)ccc1NC(=O)[C@@H]1N[C@@H](CC(C)(C)C)[C@@]2(C(=O)Nc3cc(Cl)ccc32)[C@H]1c1cccc(Cl)c1F	7.5
COc1cc(C(N)=O)ccc1NC(=O)[C@@H]1N[C@@H](CC(C)(C)C)[C@@]2(C(=O)Nc3cc(Cl)ncc32)[C@H]1c1cccc(Cl)c1F	10.2
COc1cc(C(N)=O)ccc1NC(=O)[C@@H]1N[C@@H](CC(C)(C)C)[C@@]2(C(=O)Nc3cc(Cl)sc32)[C@H]1c1cccc(Cl)c1F	2

###

# Protocol: Apparent terminal half life in C57 mouse at 0.64 mg/kg, iv
# Type: ADME, organism-based
# Design: dose 0.64 mg/kg, route intravenous
# Condition Context: in vivo, read-out: betat1/2(app) (converted)

Entry Smiles	half-life, h
COc1cc(C(N)=O)ccc1NC(=O)[C@@H]1N[C@@H](CC(C)(C)C)[C@@]2(C(=O)Nc3cc(Cl)ccc32)[C@H]1c1cccc(Cl)c1F	7.1

###

Reported bioavailability values for a set of compounds
# Protocol: Oral bioavailability in C57 mouse at 10 mg/kg
# Assay type: ADME, organism-based
# Condition Context: in vivo
Value Type: bioavailability (%)

Entry Smiles	Value Type	Unit Of Measurement	Obs Value
COc1cc(C(N)=O)ccc1NC(=O)[C@@H]1N[C@@H](CC(C)(C)C)[C@@]2(C(=O)Nc3cc(Cl)sc32)[C@H]1c1cccc(Cl)c1F	bioavailability	%	92
COc1cc(C(=O)O)ccc1NC(=O)[C@@H]1N[C@@H](CC(C)(C)C)[C@@]2(C(=O)Nc3cc(Cl)sc32)[C@H]1c1cccc(Cl)c1F	bioavailability	%	32

###

# Protocol: Oral bioavailability in C57 mouse at 5 mg/kg
# Assay type: ADME, organism-based
# Condition Context: in vivo

Entry Smiles	Unit Of Measurement	bioavailability
COc1cc(C(N)=O)ccc1NC(=O)[C@@H]1N[C@@H](CC(C)(C)C)[C@@]2(C(=O)Nc3cc(Cl)ncc32)[C@H]1c1cccc(Cl)c1F	%	46

###

# Protocol: Oral bioavailability in C57 mouse at 25 mg/kg
# Type: ADME, organism-based
# Condition Context: in vivo
Value Type: bioavailability

Entry Smiles	Obs Value
COc1cc(C(N)=O)ccc1NC(=O)[C@@H]1N[C@@H](CC(C)(C)C)[C@@]2(C(=O)Nc3cc(Cl)ccc32)[C@H]1c1cccc(Cl)c1F	92%

###

# Protocol: Apparent terminal half life in C57 mouse at 2 mg/kg, iv
# Type: ADME, organism-based
# Design: dose 2 mg/kg, route intravenous
# Condition Context: in vivo, read-out: betat1/2(app) (converted)
Value Type: half-life (min)

Entry Smiles	Value Type	Obs Value
COc1cc(C(N)=O)ccc1NC(=O)[C@@H]1N[C@@H](CC(C)(C)C)[C@@]2(C(=O)Nc3cc(Cl)ncc32)[C@H]1c1cccc(Cl)c1F	half-life	180

###

# Tested on: SJSA-1
# Protocol: Antiproliferative activity against human SJSA cells expressing wild-type p53 by MTT assay
pIC50: −log10 of the molar value.
Reported pIC50 values for a set of molecules
Value Type: pIC50

Molecule	Obs Value
COc1cc(C(=O)O)ccc1NC(=O)C1NC(CC(C)(C)C)C2(C(=O)Nc3cc(Cl)sc32)C1c1cccc(Cl)c1F (racemic)	8.05
COc1cc(C(=O)O)ccc1NC(=O)[C@@H]1N[C@@H](CC(C)(C)C)[C@@]2(C(=O)Nc3cc(Cl)ncc32)[C@H]1c1cccc(Cl)c1F (racemic)	7.37
COc1cc(C(=O)O)ccc1NC(=O)[C@@H]1N[C@@H](CC(C)(C)C)[C@@]2(C(=O)Nc3ncccc32)[C@H]1c1cccc(Cl)c1F (racemic)	5.86
COc1cc(C(N)=O)ccc1NC(=O)C1NC(CC(C)(C)C)C2(C(=O)Nc3cc(Cl)ncc32)C1c1cccc(Cl)c1F (racemic)	7.85
COc1cc(C(N)=O)ccc1NC(=O)[C@@H]1N[C@@H](CC(C)(C)C)[C@@]2(C(=O)Nc3cc(Cl)cnc32)[C@H]1c1cccc(Cl)c1F (racemic)	7.38
